- measured-target: T1, TP-51 peptide (human)
- T1 construct: Synthetic peptide from Pepscan; also called synthetic TDP-43 peptide (TP-51)
- T1 peptide: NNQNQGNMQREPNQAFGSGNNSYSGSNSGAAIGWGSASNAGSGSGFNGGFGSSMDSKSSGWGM
- assay-remarks: SPR Biacore 8K, mAb captured by anti-human antibody, TP-51 injected, single-cycle kinetics
pKd: −log10 of the molar value.

binder	pKd
hACI-7069-633B12-Ab1_H28L22 (antibody, V domains shown) VH: EVQLVQSGAEVKKPGATVKISCKVSGFTFTEYSMHWVQQAPGKGLEWMGGINPNNGGTSYNQKFKGRVTITADTSTDTAYMELSSLRSEDTAVYYCARESWGQGTTVTVSS VL: DIVMTQSPLSLPVTPGEPASISCKSSQSLLHSDGKTYLNWLLQKPGQSPKRLIYLVSKLDSRVPDRFSGSGSGTDFTLKISRVEAEDVGVYYCWQGTHFPHTFGQGTKLEIK	8.46
hACI-7069-633B12-Ab1_H33L26 (antibody, V domains shown) VH: EVQLVQSGAEVKKPGATVKISCKVSGFTFTEYSMHWVQQAPGKGLEWMGGINPNNGGTSYNQKFQGRVTITADTSTDTAYMELSSLRSEDTAVYYCARESWGQGTTVTVSS VL: DIVMTQSPLSLPVTPGEPASISCKSSQSLLHSDAKTYLNWLLQKPGQSPQRLIYLVSKLDSRVPDRFSGSGSGTDFTLKISRVEAEDVGVYYCFQGTHFPHTFGQGTKLEIK	8.80
hACI-7069-633B12-Ab1_H33L24 (antibody, V domains shown) VH: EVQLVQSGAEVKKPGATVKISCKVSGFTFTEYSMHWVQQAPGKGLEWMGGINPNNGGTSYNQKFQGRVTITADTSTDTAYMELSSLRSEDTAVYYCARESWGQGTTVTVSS VL: DIVMTQSPLSLPVTPGEPASISCKSSQSLLHSDGKTYLNWLLQKPGQSPQRLIYLVSKLDSRVPDRFSGSGSGTDFTLKISRVEAEDVGVYYCWQGTHFPHTFGQGTKLEIK	8.66
hACI-7069-633B12-Ab1_H32L26 (antibody, V domains shown) VH: EVQLVQSGAEVKKPGATVKISCKVSGFTFTEYSMHWVQQAPGKGLEWMGGINPQNAGTSYNQKFQGRVTITADTSTDTAYMELSSLRSEDTAVYYCARESWGQGTTVTVSS VL: DIVMTQSPLSLPVTPGEPASISCKSSQSLLHSDAKTYLNWLLQKPGQSPQRLIYLVSKLDSRVPDRFSGSGSGTDFTLKISRVEAEDVGVYYCFQGTHFPHTFGQGTKLEIK	8.85
hACI-7069-633B12-Ab1_H32L24 (antibody, V domains shown) VH: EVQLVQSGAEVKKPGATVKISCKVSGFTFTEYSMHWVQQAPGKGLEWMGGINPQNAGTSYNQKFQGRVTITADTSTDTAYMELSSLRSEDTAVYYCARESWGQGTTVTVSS VL: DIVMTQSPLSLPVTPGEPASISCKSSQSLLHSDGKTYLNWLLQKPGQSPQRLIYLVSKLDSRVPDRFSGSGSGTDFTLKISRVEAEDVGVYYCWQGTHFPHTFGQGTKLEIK	8.70
hACI-7069-633B12-Ab1_H27L23 (antibody, V domains shown) VH: EVQLVQSGAEVKKPGATVKISCKVSGFTFTEYSMHWVQQAPGKGLEWMGGINPNNGGTSYNQKFKGRVTITVDTSTDTAYMELSSLRSEDTAVYYCARESWGQGTTVTVSS VL: DVVMTQSPLSLPVTPGEPASISCKSSQSLLHSDGKTYLNWLLQKPGQSPQRLIYLVSKLDSRVPDRFSGSGSGTDFTLKISRVEAEDVGVYYCWQGTHFPHTFGQGTKLEIK	8.48
hACI-7069-633B12-Ab1_H28L24 (antibody, V domains shown) VH: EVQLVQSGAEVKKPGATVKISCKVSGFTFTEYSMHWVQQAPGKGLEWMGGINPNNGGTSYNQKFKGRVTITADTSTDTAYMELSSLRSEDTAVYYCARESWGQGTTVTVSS VL: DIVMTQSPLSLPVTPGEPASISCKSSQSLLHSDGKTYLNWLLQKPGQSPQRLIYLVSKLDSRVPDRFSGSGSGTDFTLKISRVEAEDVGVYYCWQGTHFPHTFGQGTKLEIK	8.70
hACI-7069-633B12-Ab1_H28L23 (antibody, V domains shown) VH: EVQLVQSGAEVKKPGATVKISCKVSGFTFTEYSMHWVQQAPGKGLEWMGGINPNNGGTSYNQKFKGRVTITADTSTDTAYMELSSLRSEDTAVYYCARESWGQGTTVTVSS VL: DVVMTQSPLSLPVTPGEPASISCKSSQSLLHSDGKTYLNWLLQKPGQSPQRLIYLVSKLDSRVPDRFSGSGSGTDFTLKISRVEAEDVGVYYCWQGTHFPHTFGQGTKLEIK	8.72
hACI-7069-633B12-Ab1_H33L27 (antibody, V domains shown) VH: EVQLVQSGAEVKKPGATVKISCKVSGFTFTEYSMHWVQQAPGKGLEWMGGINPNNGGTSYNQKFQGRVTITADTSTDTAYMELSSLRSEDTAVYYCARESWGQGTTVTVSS VL: DIVMTQSPLSLPVTPGEPASISCKSSQSLLHSDGKTYLNWLLQKPGQSPQRLIYLVSKLDSRVPDRFSGSGSGTDFTLKISRVEAEDVGVYYCFQGTHFPHTFGQGTKLEIK	9.10
hACI-7069-633B12-Ab1_H32L27 (antibody, V domains shown) VH: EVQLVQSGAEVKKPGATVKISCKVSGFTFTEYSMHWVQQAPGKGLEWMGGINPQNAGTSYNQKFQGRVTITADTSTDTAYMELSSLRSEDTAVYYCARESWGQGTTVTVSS VL: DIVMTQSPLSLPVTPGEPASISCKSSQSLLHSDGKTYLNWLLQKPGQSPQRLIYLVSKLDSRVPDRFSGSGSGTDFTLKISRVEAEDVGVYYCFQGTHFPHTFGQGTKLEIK	9.00
